Assay: Human HepG2 cell viability assay in 384 well format
Type: toxicity, cell-based
Parameters: dose 125 nL, time 70.5 hour; concentration not given beside the values
Details: HepG2 cells, read-out: Inhibition
Measured endpoint: cytotoxicity at 70.5 h (%)
State the answer as a number, implicitly in %.

Sample answers from the record:
{"Compound": "C[C@H]1C[C@@H]2CCN(C(=O)c3ccncc3)C[C@H]2O1", "cytotoxicity at 70.5 h (%)": -2.95}
{"Compound": "CC(C)CCN1CC[C@H](c2nnc(Cc3c[nH]c4ccccc34)o2)C1", "cytotoxicity at 70.5 h (%)": 1.15}
{"Compound": "O=C1NCCCC[C@@H]1NC(=O)C1(N2CCCCC2)Cc2ccccc2C1", "cytotoxicity at 70.5 h (%)": -4.27}

In plain terms, CO[C@H]1CN(Cc2ccccc2F)[C@@H]2CCCO[C@H]12 has a documented cytotoxicity at 70.5 h of -1.13

----------
We begin with a simple list: items and their reported cytotoxicity at 70.5 h.
Test: Human HepG2 cell viability assay in 384 well format
Type: toxicity, cell-based
Design: dose 125 nL, time 70.5 hour; concentration not given beside the values
Conditions: HepG2 cells, read-out: Inhibition
Just the number in %, nothing appended.

{"Molecule": "Cc1cc(O)nc(C2CN(CCC(F)(F)F)CCO2)n1 (stereo not drawn)", "Value measured": -7.38}
{"Molecule": "CCC1(CC)Cc2ccccc2-c2nc(CN(C)C)nc(O)c21", "Value measured": 27.5}
{"Molecule": "Cc1ccccc1N1CC(C)N(Cc2ccc(C)c(F)c2F)CC1=O (stereo not drawn)", "Value measured": 5.81}
{"Molecule": "CN1C(Cn2cccn2)C[C@@H]2CN(Cc3cccnc3)CC[C@@H]21 (stereo partly drawn)", "Value measured": -6.35}
{"Molecule": "CC(C)NS(=O)(=O)c1cc(C(=O)O)cc(-c2ccc3c(c2)OCCO3)c1", "Value measured": -8.82}

Here is another molecule to look at.
cytotoxicity at 70.5 h in this record for Cc1nn(C)c(N(C)C)c1CNCC(O)COc1ccccc1 (stereo not drawn) : -0.0724

----------
Test: Human HepG2 cell viability assay in 384 well format
Assay type: toxicity, cell-based
Set-up: dose 125 nL, time 70.5 hour; concentration not given beside the values
Conditions: HepG2 cells, read-out: Inhibition
Measured endpoint: cytotoxicity at 70.5 h (%)
All answers are understood in %, so give the number only.

See these solved cases before continuing.
{"Compound": "O=C(C1CCOC1)N1Cc2ccccc2OC2(CCOCC2)C1 (configuration not stated)", "Measured endpoint": "cytotoxicity at 70.5 h", "Value measured": -2.81}
{"Compound": "c1csc(CCC2CCCCN2Cc2noc(C3CC3)n2)c1 (configuration not stated)", "Measured endpoint": "cytotoxicity at 70.5 h", "Value measured": -13}
{"Compound": "COc1c(CNCCC(=O)NC2CCCCC2)c(C(C)C)nn1C", "Measured endpoint": "cytotoxicity at 70.5 h", "Value measured": -0.685}
{"Compound": "Cc1cnn(CC2CCCCN2CCS(C)(=O)=O)c1 (configuration not stated)", "Measured endpoint": "cytotoxicity at 70.5 h", "Value measured": -1.02}
{"Compound": "O=C([C@H]1CCCO1)N1CCN(Cc2cccnc2)c2ncccc2C1", "Measured endpoint": "cytotoxicity at 70.5 h", "Value measured": 0.581}
{"Compound": "Cc1ccnc(OCC(=O)N2CCCC2)n1", "Measured endpoint": "cytotoxicity at 70.5 h", "Value measured": -0.226}
{"Compound": "CCN(CC)S(=O)(=O)N(Cc1cccc(C)c1)Cc1ccccn1", "Measured endpoint": "cytotoxicity at 70.5 h", "Value measured": 19.3}
{"Compound": "O=C(c1ccc(C2CCCN2)s1)N1CCN2CCC1CC2 (configuration not stated)", "Measured endpoint": "cytotoxicity at 70.5 h", "Value measured": -5.88}

Sure, the documented cytotoxicity at 70.5 h for CCn1ccnc1CN(C)C1CCCN(CCCc2ccccc2)C1 (configuration not stated) is 18.6

compound COC[C@]12COC[C@H]1CN(C(=O)C1CC(F)(F)C1)C2 , cytotoxicity at 70.5 h observed: -8.18

compound NC(=O)COc1ccc(CNCc2c(F)cccc2F)cc1 , cytotoxicity at 70.5 h observed: -3.08

cytotoxicity at 70.5 h recorded for this compound, CC(C)OCCC(=O)NCCC(=O)N1CCN(c2ccccn2)CC1 , is -3.84

----------
Experiment: Human HepG2 cell viability assay in 384 well format
Format: toxicity, cell-based
Set-up: dose 125 nL, time 70.5 hour; concentration not given beside the values
Details: HepG2 cells, read-out: Inhibition
Measured endpoint: cytotoxicity at 70.5 h (%)
Hi! Could you send only the number? It should be in %, unit omitted.

Study these solved cases before continuing.
{"Compound": "c1ccc(Cc2nc(C3CC3)nn2-c2ccc3c(c2)OCCO3)nc1", "Value measured": 43.6}
{"Compound": "CC(NCC1CCN(CCO)CC1)c1ccc(OC(F)(F)F)cc1 (stereo unspecified)", "Value measured": -2.01}
{"Compound": "Cc1ccc(-c2cc(CN3CCc4cnc(C)nc4C3)on2)cc1", "Value measured": -10.1}
{"Compound": "Cn1nc(COCC2CC2)c2c1CCN(Cc1ccco1)C2", "Value measured": -9.54}
{"Compound": "CS(=O)(=O)CCCN(CCc1cccc(F)c1)C1CC1", "Value measured": 21.4}
{"Compound": "CN1CCN(S(=O)(=O)c2cccc(F)c2)c2cnccc21", "Value measured": -2.79}
{"Compound": "Cc1noc(CCNC(=O)c2ccc(Br)c(S(=O)(=O)N(C)C)c2)n1", "Value measured": -4.79}
{"Compound": "CN(C)C(=O)NCC(=O)N(C)Cc1cc(-c2ccccc2)no1", "Value measured": 22}

Noted for CC(C)Nc1nc(N2CCOCC2)nc2c1CN(CC(=O)N(C)C)CC2 : its cytotoxicity at 70.5 h reads 26.3

Recorded cytotoxicity at 70.5 h (compound CCOC(=O)CCC(=O)N1CCC(CSCc2ccco2)CC1 ): -12

Entry CCc1nnc2n1CCN(C(=O)c1ccc3[nH]cnc3c1)C2 , cytotoxicity at 70.5 h reported as 4.85

----------
Each entry below carries its reported cytotoxicity at 70.5 h.
Assay: Human HepG2 cell viability assay in 384 well format
Assay type: toxicity, cell-based
Design: dose 125 nL, time 70.5 hour; concentration not given beside the values
Settings: HepG2 cells, read-out: Inhibition
Kindly provide the numeric value in % only, without the unit symbol.

{"Compound": "COC(=O)c1ccnn1COc1ccc(Cl)cc1", "cytotoxicity at 70.5 h (%)": 28.1}
{"Compound": "Cc1nc(C(C)C)sc1C(=O)NS(=O)(=O)c1ccc(C#N)cc1", "cytotoxicity at 70.5 h (%)": -9.15}
{"Compound": "COc1ccc(OCc2nc(C(=O)N3C[C@H](O)[C@@H](N(C)C)C3)co2)cc1", "cytotoxicity at 70.5 h (%)": -4.57}
{"Compound": "O=C(CCc1ccco1)NCC1CCCN1c1cccnn1 (stereo unspecified)", "cytotoxicity at 70.5 h (%)": -2.58}
{"Compound": "O=C(CCS(=O)(=O)C1CCCC1)NCCc1cccnc1", "cytotoxicity at 70.5 h (%)": -6.71}

Alright, here's another compound for you.
compound Cc1cc(C)n(CCNC(=O)c2ncc[nH]2)c(=O)n1 , cytotoxicity at 70.5 h observed: -3.22

----------
Assay: Human HepG2 cell viability assay in 384 well format
Assay type: toxicity, cell-based
Set-up: dose 125 nL, time 70.5 hour; concentration not given beside the values
Settings: HepG2 cells, read-out: Inhibition
Measured endpoint: cytotoxicity at 70.5 h (%)
The response must be a number in % with no trailing unit.

{"Compound": "CCC1=N[C@@]2(CC[C@@H]3CN(C(=O)Nc4ccccc4)C[C@@H]32)C(=O)N1C", "cytotoxicity at 70.5 h (%)": -85.8}
{"Compound": "CCc1nnc2n1CCN(C(=O)c1ccc3[nH]nnc3c1)C2", "cytotoxicity at 70.5 h (%)": -8.74}
{"Compound": "O=c1ccncn1Cc1csc(C2CC2)n1", "cytotoxicity at 70.5 h (%)": -3.74}
{"Compound": "O=C(NCC1CCN(c2ccncc2)CC1)C(O)c1ccccc1 (stereo unspecified)", "cytotoxicity at 70.5 h (%)": 7.47}
{"Compound": "c1ccc(C[C@H]2CN(Cc3nccs3)CC[C@H]2OCC2CC2)cc1", "cytotoxicity at 70.5 h (%)": -11.5}

response.value for CNc1nc(C(=O)N2CCCC(c3nccn3CC3CCC3)C2)cs1 (stereo unspecified) (field: cytotoxicity at 70.5 h) = 8.97

Value of cytotoxicity at 70.5 h reported for the compound CN(C)S(=O)(=O)N1C[C@@H]2CC[C@H](C1)N(Cc1ccc3[nH]ccc3c1)C2 is -5.61

----------
Assay: Human HepG2 cell viability assay in 384 well format
Format: toxicity, cell-based
Parameters: dose 125 nL, time 70.5 hour; concentration not given beside the values
Conditions: HepG2 cells, read-out: Inhibition
Reported cytotoxicity at 70.5 h values for a set of compounds
Report the figure in % without appending any unit label.

Sample answers from the record:
{"Compound": "Cc1nn(C)c(N(C)C)c1CNCc1ccccc1Cn1cncn1", "cytotoxicity at 70.5 h / %": -9.26}
{"Compound": "CC(=O)NCC(=O)N1CCN(Cc2cccnc2)c2ncccc2C1", "cytotoxicity at 70.5 h / %": -15.1}
{"Compound": "Cn1ncc2c1C(COCC1CC1)CN(c1ncc(F)cn1)C2 (stereo unspecified)", "cytotoxicity at 70.5 h / %": -4.28}

Lab note: measured cytotoxicity at 70.5 h of CC(C(=O)NC1CCCCC1)N1CCc2[nH]nc(C(F)(F)F)c2C1 (stereo unspecified) was -7.82

Short answer for CC1(C)CCC(C(=O)N2CCCO2)c2ccccc21 (stereo unspecified) : cytotoxicity at 70.5 h was 9.21

The compound identified as CS(=O)(=O)N1C[C@H]2CCCN(Cc3nccs3)[C@H]2C1 registered its cytotoxicity at 70.5 h at 14.5

The reported numbers originate from ChEMBL document CHEMBL3507680.
